Each entry below carries its reported inhibition at 25 µM.
Tested on: Mycobacterium tuberculosis
MEASUREMENT_PROTOCOL: MMV: Screen against Mtb, single point, non replicating, at 25uM
Type: functional
The reply should contain only the number, in %.

COMPOUND	inhibition at 25 µM, %
Cn1c(=O)c2cc(C(=O)NCCCN3CCCCCC3)sc2c2ccccc21	14.6
Cc1cc(Nc2ccc3ccccc3c2)n2ncnc2n1	19.9

-- ask # return recorded inhibition at 25 µM for input "COc1ccc(C2N(C)c3ccccc3N2C)cc1"
-- reply -0.36

-- ask Supply measured inhibition at 25 µM of CCN(CC)CCn1c(=N)n(CC(O)c2ccc(Cl)c(Cl)c2)c2ccccc21 (centres undefined) in your reply.
-- reply 10.1

###

Tested on: Mycobacterium tuberculosis
MEASUREMENT_PROTOCOL: MMV: Screen against Mtb, single point, non replicating, at 25uM
Format: functional
READOUT_NAME: inhibition at 25 µM (%)
Express it in %; write the number only.

Some solved cases for reference:
COMPOUND	RESULT_UNITS	inhibition at 25 µM
COc1ccccc1CNC(=O)C1c2ccccc2C(=O)N(CC(C)C)C1c1cccs1 (stereo unspecified)	%	9.76
CN(C)c1ccc(N2C(N)=NC(N)=NC2(C)C)cc1	%	1.21
CCN(CC)CCNc1ccnc2cc3ccccc3cc12	%	0.0721

-- ask Item "COc1cccc(Nc2nc(NCCO)c3ccccc3n2)c1" : provide inhibition at 25 µM
-- reply 14.8

-- ask Indicate the recorded inhibition at 25 µM value for this compound: "Cc1nc2ccccc2c(O)c1CC=C(Cl)Cl"
-- reply 0.782

-- ask Report inhibition at 25 µM, nothing else, for this compound: "CCCCOC(=O)c1ccc(Nc2cc(C)nc3ccc(OC)cc23)cc1"
-- reply 24.7

###

A collection of compounds and their measured inhibition at 25 µM
Tested on: Mycobacterium tuberculosis
MEASUREMENT_PROTOCOL: MMV: Screen against Mtb, single point, non replicating, at 25uM
Format: functional
Lab book: enter the figure in %, no units written.

Observe how each entry below is paired with its result.
COMPOUND	RESULT_UNITS	inhibition at 25 µM
CCOC(=O)c1cnc2c(C)cccc2c1Nc1ccc(C(C)=O)cc1	%	8.24
CC1CCCCN1CCCNC(=O)c1ccc2c(c1)sc1nc(-c3ccc(F)cc3)cn12 (stereo not drawn)	%	9.76

-- ask Complete the entry with inhibition at 25 µM for "Cc1ccc(S(=O)(=O)c2c(COC(=O)c3cccc(C)c3)c(-c3ccccc3)nn2C)cc1"
-- reply 8.24

###

System: Mycobacterium tuberculosis
MEASUREMENT_PROTOCOL: MMV: Screen against Mtb, single point, non replicating, at 25uM
Format: functional
READOUT_NAME: inhibition at 25 µM
The answer should read as a number with its unit following.

# annotated cases, reported inhibition at 25 µM shown
COMPOUND	TEST_TARGET	inhibition at 25 µM
CCn1c2c(c(=N)c3c1CCC3)CCCC2	Mycobacterium tuberculosis	8.24%
CCCCCCc1cc2cc(-c3csc(C=Cc4ccccc4)n3)c(=O)oc2cc1O	Mycobacterium tuberculosis	9.83%
Oc1ccc(Cl)cc1CNc1nc2ccccc2[nH]1	Mycobacterium tuberculosis	4.53%
CCCCc1ccc(NS(=O)(=O)c2cc3c4c(c2)CCN4C(=O)CC3)cc1	Mycobacterium tuberculosis	-2.45%
CN(C)CCCNc1c2ccccc2nc2ccccc12	Mycobacterium tuberculosis	17.8%
COCCNCC(O)Cn1c2ccc(Cl)cc2c2cc(Cl)ccc21 (stereo not given)	Mycobacterium tuberculosis	26.7%
O=C(NCCCN1CCC(N2CCCCC2)CC1)C1=Cc2cc(Br)ccc2OC1	Mycobacterium tuberculosis	6.82%
COc1ccccc1CNC(=O)CCn1c(=O)[nH]c2ccsc2c1=O	Mycobacterium tuberculosis	0.338%
Cc1cc(=O)oc2c1ccc1oc(C(=O)c3ccccc3)c(C)c12	Mycobacterium tuberculosis	21.4%

Now consider the entry below.
-- ask Under Mycobacterium tuberculosis: report inhibition at 25 µM of CCOC(=O)C1=C(C)N=c2sc(=Cc3ccccc3O)c(=O)n2C1c1ccc(OC)c2ccccc12 (stereo not given) .
-- reply 24.4%
